- Tested on: PC-3 prostate cancer cells
- assay summary: MTT cytotoxicity assay, PC-3
- condition notes: Homo sapiens, 48 h, read-out: IC50 PC-3
value kind: pIC50
Remember the convention: pIC50 equals -log10 of concentration in molar.

Below are worked cases with known answers.
1. COc1ccc(C=NNC(=O)CCCC(=O)c2cccs2)cc1
4.97
2. CC(C)CC=NNC(=O)CCCC(=O)c1cccs1
3.90

Now consider the entry below.
Incoming: Need pIC50, item COc1ccc(C=NNC(=O)CCCC(=O)c2ccc(C)cc2)cc1
Outgoing: 4.90

* * *

Entries and their melting point

1. O=C(CCCC(=O)c1ccc(Cl)cc1)NN=Cc1ccco1
132 to 133 °C
2. COc1ccc(/C=N/NC(=O)CCCC(=O)c2ccccc2)cc1
199 to 200 °C

Incoming: Need melting point, item COc1ccc(C(=O)CCCC(=O)NN=Cc2ccco2)cc1
Outgoing: 144 to 145 °C

Incoming: Need melting point, item COc1ccc(C=NNC(=O)CCCC(=O)c2ccc(C)cc2)cc1
Outgoing: 133 to 134 °C

Incoming: Need melting point, item COc1ccc(C=NNC(=O)CCCC(=O)c2ccc(OC)cc2)cc1
Outgoing: 154 to 155 °C
